# System: human red blood cells
# conditions: lowest concentration showing 5% or more hemolysis; human red blood cells 10% v/v in PBS, 1 h, 1–64 μg/mL, A550, relative to 0.2% Triton X-100; triplicate
Where no end group is shown, it is not given here.
MHC, minimal hemolytic concentration listing for selected substances.

substance: LKWLLKWLK-NH2 [WALK243.03]
reading-unit: µg/mL
MHC, minimal hemolytic concentration: 32
//
substance: KWLLKWLKKL-NH2 [WALK244.02]
reading-unit: µg/mL
MHC, minimal hemolytic concentration: 32
//
substance: LKKWLKWLLK-NH2 [WALK244.07]
reading-unit: µg/mL
MHC, minimal hemolytic concentration: 32
//
substance: KWLLKLLKW-NH2 [WALK243.09]
reading-unit: µg/mL
MHC, minimal hemolytic concentration: 64
//
substance: KLLKWLLKW-NH2 [WALK243.05]
reading-unit: µg/mL
MHC, minimal hemolytic concentration: 64

---

# Tested on: Staphylococcus aureus ATCC 6538p
# method-notes: microbe, parasite or virus in culture
# Assay type: cell-based
# conditions: Gram-positive; broth microdilution, Luria-Bertani broth, 1–64 μg/mL two-fold serial dilutions; triplicate
Where no end group is shown, it is not given here.

substance: KWLKKLLKWL-NH2 [WALK244.09]
modifier-sign: =
MIC, S. aureus [µg/mL]: 2
--
substance: LKWLKKLLKW-NH2 [WALK244.10]
modifier-sign: =
MIC, S. aureus [µg/mL]: 2
--
substance: LKKWLKWLLK-NH2 [WALK244.07]
modifier-sign: =
MIC, S. aureus [µg/mL]: 2
--
substance: KWLLKWLKKL-NH2 [WALK244.02]
modifier-sign: =
MIC, S. aureus [µg/mL]: 2
--
substance: KWLLKLLKW-NH2 [WALK243.09]
modifier-sign: =
MIC, S. aureus [µg/mL]: 4
--
substance: WLLKWLKKL-NH2 [WALK243.01]
modifier-sign: =
MIC, S. aureus [µg/mL]: 4
--
substance: LKWLLKWLK-NH2 [WALK243.03]
modifier-sign: =
MIC, S. aureus [µg/mL]: 4
--
substance: WLKKLLKWL-NH2 [WALK243.08]
modifier-sign: =
MIC, S. aureus [µg/mL]: 2
--
substance: WLKKWLKKLL-NH2 [WALK244.01]
modifier-sign: =
MIC, S. aureus [µg/mL]: 2
--
substance: LLKWLKKWLK-NH2 [WALK244.04]
modifier-sign: =
MIC, S. aureus [µg/mL]: 4
--
substance: KKLLKWLLKW-NH2 [WALK244.06]
modifier-sign: =
MIC, S. aureus [µg/mL]: 3
--
substance: LKKWLKWLL-NH2 [WALK243.07]
modifier-sign: =
MIC, S. aureus [µg/mL]: 2
--
substance: KLLKWLLKW-NH2 [WALK243.05]
modifier-sign: =
MIC, S. aureus [µg/mL]: 2
--
substance: LLKWLKKWL-NH2 [WALK243.04]
modifier-sign: =
MIC, S. aureus [µg/mL]: 4
--
substance: LKWLKWLLK-NH2 [WALK243.06]
modifier-sign: =
MIC, S. aureus [µg/mL]: 2
--
substance: KLLKWLKKWL-NH2 [WALK244.05]
modifier-sign: =
MIC, S. aureus [µg/mL]: 2
--
substance: LKWLLKWLKK-NH2 [WALK244.03]
modifier-sign: =
MIC, S. aureus [µg/mL]: 8
--
substance: WLKKLLKWLK-NH2 [WALK244.08]
modifier-sign: ≤
MIC, S. aureus [µg/mL]: 1
--
substance: KWLLKWLLK-NH2 [WALK243.02]
modifier-sign: =
MIC, S. aureus [µg/mL]: 4

---

Measured MHC, minimal hemolytic concentration values are reported for all entries that follow.
# System: human red blood cells
# conditions: lowest concentration showing 5% or more hemolysis; human red blood cells 10% v/v in PBS, 1 h, 1–64 μg/mL, A550, relative to 0.2% Triton X-100; triplicate
Where no end group is shown, it is not given here.

substance: KLLKWLKKWL-NH2 [WALK244.05]
MHC, minimal hemolytic concentration / µg/mL: 32

substance: KWLLKWLLK-NH2 [WALK243.02]
MHC, minimal hemolytic concentration / µg/mL: 64

substance: LKKWLKWLL-NH2 [WALK243.07]
MHC, minimal hemolytic concentration / µg/mL: 16

substance: WLLKWLKKL-NH2 [WALK243.01]
MHC, minimal hemolytic concentration / µg/mL: 32

substance: LKWLLKWLKK-NH2 [WALK244.03]
MHC, minimal hemolytic concentration / µg/mL: 64

substance: LLKWLKKWL-NH2 [WALK243.04]
MHC, minimal hemolytic concentration / µg/mL: 64

substance: WLKKWLKKLL-NH2 [WALK244.01]
MHC, minimal hemolytic concentration / µg/mL: 16

substance: LLKWLKKWLK-NH2 [WALK244.04]
MHC, minimal hemolytic concentration / µg/mL: 64

substance: WLKKLLKWL-NH2 [WALK243.08]
MHC, minimal hemolytic concentration / µg/mL: 8

substance: LKWLKKLLKW-NH2 [WALK244.10]
MHC, minimal hemolytic concentration / µg/mL: 32

substance: KKLLKWLLKW-NH2 [WALK244.06]
MHC, minimal hemolytic concentration / µg/mL: 32

substance: WLKKLLKWLK-NH2 [WALK244.08]
MHC, minimal hemolytic concentration / µg/mL: 8

substance: LKWLKWLLK-NH2 [WALK243.06]
MHC, minimal hemolytic concentration / µg/mL: 32

substance: KWLKKLLKWL-NH2 [WALK244.09]
MHC, minimal hemolytic concentration / µg/mL: 8
